Measured SPOT intensity, listed per entry for reference.
# STUDY TARGET: T1, Bud14, P27637
# T1 sequence (P27637 247-328, looked up): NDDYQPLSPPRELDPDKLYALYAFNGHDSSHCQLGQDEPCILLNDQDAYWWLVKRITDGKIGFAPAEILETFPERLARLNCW
# TEST DESCRIPTION: SPOT array
# RECORDED CONDITIONS: median of control spots 956
# respond with the number and nothing more

Some entries whose results are on file:
| BINDER | READOUT NAME | REPORTED RESULT |
| --- | --- | --- |
| KNRKNLPTIPIRLSG | SPOT intensity | 3 |
| VRVKKRPLIRPLNSS | SPOT intensity | 16 |
| AGKRRLPLVRFKASD | SPOT intensity | 28 |

query: For "FYNRTAFQLPGDARV" , write its SPOT intensity.
result: 4
